- Protocol Details: Biodistribution of 14C-CA4P following sub-Tenon's injection
- Assay type: in vivo, New Zealand rabbits
- Experimental Parameters: retina; 100 mg/ml sub-Tenon's
Observation Type: Cmax (µM)
Numbers only; they are read as µM.

Give Cmax for the following compound: COc1ccc(/C=C\c2cc(OC)c(OC)c(OC)c2)cc1OP(=O)([O-])[O-].[Na+].[Na+] [CA4P, combretastatin A4 disodium phosphate]
171

* * *

- Protocol Details: Biodistribution of 14C-CA4P following sub-Tenon's injection
- Assay type: in vivo, New Zealand rabbits
- Experimental Parameters: vitreous; 1 mg/ml sub-Tenon's
Observation Type: Cmax (nM)
Numbers only; they are read as nM.

Give Cmax for the following compound: COc1ccc(/C=C\c2cc(OC)c(OC)c(OC)c2)cc1OP(=O)([O-])[O-].[Na+].[Na+] [CA4P, combretastatin A4 disodium phosphate]
19
